- Target System: a4b7(G629S) (human) (UniProt P13612)
- Sequence (P13612 34-1032, chain 1 of 2): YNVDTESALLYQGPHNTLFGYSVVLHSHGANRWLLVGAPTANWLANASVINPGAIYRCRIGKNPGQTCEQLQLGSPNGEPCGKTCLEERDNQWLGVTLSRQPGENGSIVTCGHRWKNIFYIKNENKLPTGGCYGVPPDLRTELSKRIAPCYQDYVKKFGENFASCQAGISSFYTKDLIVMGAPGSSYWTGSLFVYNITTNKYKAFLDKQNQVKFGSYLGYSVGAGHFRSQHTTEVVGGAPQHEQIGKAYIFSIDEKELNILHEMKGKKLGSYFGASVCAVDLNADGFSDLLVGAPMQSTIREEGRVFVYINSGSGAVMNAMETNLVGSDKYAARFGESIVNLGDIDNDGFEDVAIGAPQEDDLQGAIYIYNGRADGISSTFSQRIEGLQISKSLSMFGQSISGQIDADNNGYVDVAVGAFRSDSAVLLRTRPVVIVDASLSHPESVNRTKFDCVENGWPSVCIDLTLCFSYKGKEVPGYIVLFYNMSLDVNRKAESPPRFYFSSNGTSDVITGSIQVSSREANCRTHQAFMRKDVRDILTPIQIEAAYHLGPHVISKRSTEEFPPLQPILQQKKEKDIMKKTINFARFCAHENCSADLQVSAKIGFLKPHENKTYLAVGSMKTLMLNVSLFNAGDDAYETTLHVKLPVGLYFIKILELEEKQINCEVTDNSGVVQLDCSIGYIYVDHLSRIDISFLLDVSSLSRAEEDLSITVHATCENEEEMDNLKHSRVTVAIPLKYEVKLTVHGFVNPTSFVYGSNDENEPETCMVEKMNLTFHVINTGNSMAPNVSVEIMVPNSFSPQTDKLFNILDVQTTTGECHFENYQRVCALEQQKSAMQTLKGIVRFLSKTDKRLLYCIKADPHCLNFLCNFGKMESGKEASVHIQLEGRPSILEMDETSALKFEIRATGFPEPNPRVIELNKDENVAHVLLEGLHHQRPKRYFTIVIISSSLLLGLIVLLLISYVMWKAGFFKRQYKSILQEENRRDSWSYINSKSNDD
- Sequence (P26010 20-798 G629S, chain 2 of 2, further chain): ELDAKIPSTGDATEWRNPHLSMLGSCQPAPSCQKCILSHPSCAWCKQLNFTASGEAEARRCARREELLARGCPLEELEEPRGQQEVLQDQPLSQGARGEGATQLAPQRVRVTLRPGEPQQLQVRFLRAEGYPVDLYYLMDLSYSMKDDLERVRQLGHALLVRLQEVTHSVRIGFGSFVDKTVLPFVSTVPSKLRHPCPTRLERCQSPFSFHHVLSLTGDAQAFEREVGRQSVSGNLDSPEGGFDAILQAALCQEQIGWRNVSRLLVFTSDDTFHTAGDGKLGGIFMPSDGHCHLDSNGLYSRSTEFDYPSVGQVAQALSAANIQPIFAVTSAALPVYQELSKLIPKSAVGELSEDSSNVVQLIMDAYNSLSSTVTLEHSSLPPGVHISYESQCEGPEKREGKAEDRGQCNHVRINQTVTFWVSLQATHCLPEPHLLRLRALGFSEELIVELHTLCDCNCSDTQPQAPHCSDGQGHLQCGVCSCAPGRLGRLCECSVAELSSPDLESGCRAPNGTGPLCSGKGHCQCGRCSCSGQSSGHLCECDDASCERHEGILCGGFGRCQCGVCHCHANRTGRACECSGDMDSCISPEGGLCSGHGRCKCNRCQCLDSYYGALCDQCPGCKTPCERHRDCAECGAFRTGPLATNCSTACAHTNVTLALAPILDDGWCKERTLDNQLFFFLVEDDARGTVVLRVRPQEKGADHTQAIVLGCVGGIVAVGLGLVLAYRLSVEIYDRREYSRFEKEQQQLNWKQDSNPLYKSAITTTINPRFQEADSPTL
- Procedure Details: FACS on transfected 293 cells, 1 microG/ml, PE anti-human IgG
Readout: fluorescence staining intensity (geometric mean)
No unit in the answer, please; the number alone is enough.

Query block: What does the record list as fluorescence staining intensity (geometric mean) for 27G8 (antibody, V domains shown, Fully human monoclonal from XenoMouse (human IgG2 or IgG4); lambda light chain; PE-conjugated in the cynomolgus study; also called 27G8L; 27G8H) VH: EVQLVESGGGLVQPGGSLRLSCAASGFTFSSYWMSWVRQASGKGLEWVANIKQDGSEKYYVDSVKGRFTISRDNAKNSLYLQMNSLRAEDTAVYYCAREGGYDWNYADYYGMDVWGQGTTVTVSS VL: QSVLTQPPSVSEAPRQRVTISCSGSNSNIGNNPVNWYQLFPGRAPKLLIYHDDLLPSGVSDRFSGSRSGTSASLAISGLQSEDETDYYCTAWDDSLNGWVFGGGTKLTVL ?
Result block: 68

Query block: Please do the same for 17C8 (antibody, V domains shown, Fully human monoclonal from XenoMouse (human IgG2 or IgG4); kappa light chain; also called 17C8K; 17C8H) VH: QVQLVESGGGLVKPGGSLRLSCAASGFTFSDYYMSWIRQAPGKGLEWLSYISNSGSAMYYADSVKGRFTISRDNARNSLYLQMNSLRAEDTAVYYCAREYSSGWFFFESWGQGTLVTVSS VL: EIVMTQSPATLSVSPGERATLSCRASQSVSSNLVWYQQKPGQAPRLLIYGASTRATGIPARFSGSGSGTDFTLTISSLQSEDFAVYYCQQYDDWPPLTFGGGTTVEIK as well.
Result block: 58

Query block: Record: 1A10 (antibody, V domains shown, Fully human monoclonal from XenoMouse XG2kl or XG4kl mice (human IgG2 or IgG4); kappa light chain; also called 1A10K; 1A10H) VH: QVQLVQSGAEVKKPGASVKVSCKVSGYTLNDLSMHWVRQAPGKGLEWMGGFDPAEGKIISAQKFQDRVTMTDDTSTDTAYMELSSLRSEDSAVYYCATLDFSSWFDPWGQGTLVTVSS VL: DIQMTQSPSSVSASVGDRVTITCRASQGVSSWLAWYQQKPGMAPKLLIYAASILQSGVPSRFSGSGSGTDFTLTISSLQPEDFATYYCQQANSFPWTFGQGTKVEIK
Result block: 80
